Overview of recorded Fold Improvement (Kd, against lead clone 1C12) for various binders
- measurement_target: TRAIL R2 (recombinant, form not given) (human, UniProt O14763, biotin (in the capture ELISA and the competition ELISA of Example 14))
- assay_method_text: SPR (ProteOn XPR36), TRAIL R2 immobilised, equilibrium analysis
State just the number; it will be interpreted in fold.

binder | measurement
A1(1E11) (designed binder) AIEVKDVTDTTALITWAKPWVDPPPLWGCELAYGIKDVPGDRTTIDLQQKHTAYSIGNLKPDTEYEVSLICFDPYGAKSNPAKETFTTGGGTLGHHHHHHHH | 40

Provide measured Fold Improvement (Kd, against lead clone 1C12) value, entry: G3 (designed binder) AIEVKDVTDTTALITWAKPEKWDPPLWGCELAYGIKDVPGDRTTIDLNSRHTAYSIGNLKPDTEYEVSLICFTPYGAKSNPAKETFTTGGGTLGHHHHHHHH
10

Report Fold Improvement (Kd, against lead clone 1C12), nothing else, for this binder: C4 (designed binder) AIEVKDVTDTTALITWAKPWVDPPPLWGCELAYGIKDVPGDRTTIDLQQKHTAYSIGNLKPDTEYEVSLICFDPYNKRNVPAKETFTTGGGTLGHHHHHHHH
83

Return reported Fold Improvement (Kd, against lead clone 1C12). Input binder: G6 (designed binder) AIEVKDVTDTTALITWAKPWVDPPPLWGCELAYGIKDVPGDRTTIDLQQKHTAYSIGNLKPDTEYEVSLICFDPYGMRSKPAKETFTTGGGTLGHHHHHHHH
96
